Tested on: OVCAR-5
Assay: NCI tumour cell line growth inhibition, 48 h
The source made the active and inactive calls. No stated cut-off is given here; in the data, active = GI50 up to about 1.1 µM and inactive = higher.
Catalogue of GI50 values

{"TEST_SMILES": "N#C/C(=C/NC(N)=S)C(N)=O", "ASSAYED_SYSTEM": "OVCAR-5", "READOUT_KIND": "GI50", "VALUE_REPORTED": "> 100 µM (inactive)"}
{"TEST_SMILES": "CC(C)C(=O)N[C@@H](C)C(=O)N(Cc1ccc2ccccc2c1)N=O", "ASSAYED_SYSTEM": "OVCAR-5", "READOUT_KIND": "GI50", "VALUE_REPORTED": "48.8 µM (inactive)"}

Now take the following compound into account.
Request: Requested read-out GI50, target or system OVCAR-5, entry `CCCCN1C(=O)c2c(Br)sc(Br)c2C1=O`
Response: 30.4 µM (inactive)
